Molecular target: human TRPV1 (Homo sapiens)
Sequence (Q8NER1 whole entry): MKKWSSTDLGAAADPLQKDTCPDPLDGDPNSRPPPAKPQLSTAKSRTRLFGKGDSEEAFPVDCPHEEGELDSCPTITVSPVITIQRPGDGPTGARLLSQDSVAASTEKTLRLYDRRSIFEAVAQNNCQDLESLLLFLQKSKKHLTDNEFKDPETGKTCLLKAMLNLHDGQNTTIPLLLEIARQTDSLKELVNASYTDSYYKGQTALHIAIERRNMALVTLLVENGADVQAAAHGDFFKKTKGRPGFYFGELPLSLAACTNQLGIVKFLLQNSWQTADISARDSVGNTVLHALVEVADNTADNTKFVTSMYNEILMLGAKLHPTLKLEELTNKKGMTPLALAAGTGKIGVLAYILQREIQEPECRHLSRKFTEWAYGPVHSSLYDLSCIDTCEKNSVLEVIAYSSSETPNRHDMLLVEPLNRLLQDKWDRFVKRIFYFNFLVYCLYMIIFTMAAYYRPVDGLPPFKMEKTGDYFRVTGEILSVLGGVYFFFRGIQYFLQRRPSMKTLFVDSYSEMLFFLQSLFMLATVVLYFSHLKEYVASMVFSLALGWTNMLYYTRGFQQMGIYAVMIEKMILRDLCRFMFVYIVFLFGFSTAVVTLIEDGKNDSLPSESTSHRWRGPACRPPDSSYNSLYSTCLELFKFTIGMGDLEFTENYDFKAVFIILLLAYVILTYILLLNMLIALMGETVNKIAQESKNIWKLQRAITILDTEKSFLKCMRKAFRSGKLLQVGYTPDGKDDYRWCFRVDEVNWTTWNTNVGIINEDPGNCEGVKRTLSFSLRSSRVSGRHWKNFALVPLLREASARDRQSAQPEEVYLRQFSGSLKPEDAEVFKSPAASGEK
Experiment: TRPV1 agonist and antagonist Ca2+ flux assay (FLIPR, Fluo-8) in HEK293 cells stably expressing human TRPV1
Type: cell-based
Details: tested at 100 nM; normalized to Emax of capsaicin (3 μM)
observation-type: hTRPV1 % Activation (n = 3) (%)
I only need the number, in %, no unit after it.

compound: O=C(NC1CCCCCC1)c1ccc(-c2ccccc2)cc1
value-units: %
hTRPV1 % Activation (n = 3): 0.0

Given the entry O=C(NC1CCC2CCCCC2C1)c1ccc(-c2ccccc2)cc1 (mixture of isomers) , report its measured hTRPV1 % Activation (n = 3). 2.3

// hTRPV1 % Activation (n = 3) lookup, key: O=C(NC1CCCCCCC1)c1ccc(-c2ccccc2)cc1 −1.9

# get_value(readout='hTRPV1 % Activation (n = 3)', item= O=C(NC1CCC2(CCCCC2)CC1)c1ccc(-c2ccccc2)cc1 ) −1.0

So what's the measured hTRPV1 % Activation (n = 3) for this one? O=C(NC1CCc2ccccc2C1)c1ccc(-c2ccccc2)cc1 (centres unmarked) −1.8

* * *

Biological target: human TRPA1 (Homo sapiens)
Sequence (O75762 whole entry): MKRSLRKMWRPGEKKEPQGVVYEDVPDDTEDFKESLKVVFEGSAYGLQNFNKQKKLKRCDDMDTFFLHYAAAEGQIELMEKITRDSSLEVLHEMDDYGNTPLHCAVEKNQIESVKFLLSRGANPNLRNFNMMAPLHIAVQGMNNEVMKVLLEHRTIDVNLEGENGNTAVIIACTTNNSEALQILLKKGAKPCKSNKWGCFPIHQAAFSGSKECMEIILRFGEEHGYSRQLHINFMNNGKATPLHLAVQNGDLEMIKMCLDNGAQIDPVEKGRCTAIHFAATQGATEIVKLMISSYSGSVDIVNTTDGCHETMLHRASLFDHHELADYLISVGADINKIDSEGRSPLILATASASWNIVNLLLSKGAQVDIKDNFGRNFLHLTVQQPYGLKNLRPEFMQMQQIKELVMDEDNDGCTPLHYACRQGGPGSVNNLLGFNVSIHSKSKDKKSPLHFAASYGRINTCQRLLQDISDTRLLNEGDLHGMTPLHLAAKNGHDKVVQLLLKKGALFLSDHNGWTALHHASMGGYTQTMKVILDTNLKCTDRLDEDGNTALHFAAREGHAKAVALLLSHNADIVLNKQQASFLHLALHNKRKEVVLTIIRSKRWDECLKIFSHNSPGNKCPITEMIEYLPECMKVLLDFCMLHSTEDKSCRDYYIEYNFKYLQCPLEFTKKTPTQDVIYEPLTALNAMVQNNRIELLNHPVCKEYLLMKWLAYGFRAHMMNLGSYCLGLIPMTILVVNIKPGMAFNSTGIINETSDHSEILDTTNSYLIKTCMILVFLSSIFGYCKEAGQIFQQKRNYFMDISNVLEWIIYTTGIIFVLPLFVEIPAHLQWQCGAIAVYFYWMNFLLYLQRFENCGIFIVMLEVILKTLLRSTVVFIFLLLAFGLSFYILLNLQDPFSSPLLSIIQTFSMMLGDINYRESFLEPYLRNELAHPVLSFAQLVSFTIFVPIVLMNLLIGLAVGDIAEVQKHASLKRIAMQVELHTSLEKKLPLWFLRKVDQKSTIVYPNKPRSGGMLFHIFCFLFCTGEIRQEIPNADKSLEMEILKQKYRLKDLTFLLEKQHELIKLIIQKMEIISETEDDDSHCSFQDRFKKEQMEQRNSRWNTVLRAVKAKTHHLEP
Test: TRPA1 agonist and antagonist Ca2+ flux assay (FLIPR, Fluo-8) in HEK293 cells stably expressing human TRPA1
Format: cell-based
Conditions: AITC 10 μM; read-out: IC50, blockade of AITC-activated hTRPA1 responses
observation-type: IC50 (nM)
Your answer is read as nM, so omit the unit and give the number.

For N.N.N.N.N.N.N.N.N.N.N.N.N.N.[Cl-].[Cl-].[Cl-].[Cl-].[Cl-].[Cl-].[O-2].[O-2].[Ru+3].[Ru+3].[Ru+4] [Ruthenium Red, reference compound] , what is its reported IC50? 162

* * *

Molecular target: TRPM8 (Homo sapiens, UniProt Q7Z2W7)
Sequence (Q7Z2W7 whole entry): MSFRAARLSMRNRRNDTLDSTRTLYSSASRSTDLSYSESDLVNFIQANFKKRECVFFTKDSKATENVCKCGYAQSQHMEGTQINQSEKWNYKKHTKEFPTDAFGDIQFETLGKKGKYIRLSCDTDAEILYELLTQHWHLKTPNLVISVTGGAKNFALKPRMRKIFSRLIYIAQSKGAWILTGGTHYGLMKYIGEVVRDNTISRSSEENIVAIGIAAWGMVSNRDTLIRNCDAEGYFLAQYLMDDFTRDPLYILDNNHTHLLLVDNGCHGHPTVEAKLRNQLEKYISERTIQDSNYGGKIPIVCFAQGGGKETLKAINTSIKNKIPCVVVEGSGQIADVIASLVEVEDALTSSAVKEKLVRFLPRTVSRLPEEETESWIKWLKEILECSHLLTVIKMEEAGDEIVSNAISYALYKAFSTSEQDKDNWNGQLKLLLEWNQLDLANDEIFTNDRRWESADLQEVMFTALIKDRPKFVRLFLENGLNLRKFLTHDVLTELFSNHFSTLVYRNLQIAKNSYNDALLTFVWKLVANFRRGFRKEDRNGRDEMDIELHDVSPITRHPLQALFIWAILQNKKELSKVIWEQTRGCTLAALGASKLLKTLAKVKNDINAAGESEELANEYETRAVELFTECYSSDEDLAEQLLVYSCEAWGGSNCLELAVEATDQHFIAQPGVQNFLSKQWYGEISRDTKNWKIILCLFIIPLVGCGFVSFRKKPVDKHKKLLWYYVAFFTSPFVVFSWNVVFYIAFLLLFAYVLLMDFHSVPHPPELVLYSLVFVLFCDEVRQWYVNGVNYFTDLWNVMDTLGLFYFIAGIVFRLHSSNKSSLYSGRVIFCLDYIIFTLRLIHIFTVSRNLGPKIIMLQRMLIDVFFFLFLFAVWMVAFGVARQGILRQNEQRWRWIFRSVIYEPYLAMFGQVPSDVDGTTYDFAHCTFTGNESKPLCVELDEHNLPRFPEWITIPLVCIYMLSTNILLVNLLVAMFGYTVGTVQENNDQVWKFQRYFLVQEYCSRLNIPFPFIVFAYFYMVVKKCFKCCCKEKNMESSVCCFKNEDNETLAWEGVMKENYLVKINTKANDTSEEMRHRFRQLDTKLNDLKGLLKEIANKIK
Assay: Whole-cell patch-clamp electrophysiology, menthol-evoked TRPM8 currents in HEK-293 cells transiently transfected with human TRPM8
Type: cell-based
Conditions: whole-cell patch clamp, +80 mV, 500 μM menthol, n=6 cells; read-out: IC50, inhibition of menthol-evoked TRPM8 currents
observation-type: pIC50
In plain terms, pIC50 is the concentration in mol/L turned into minus its base-10 logarithm.

Request body: readout pIC50, system TRPM8 (Homo sapiens, UniProt Q7Z2W7), query O=C(NC1CCC2(CCCC2)CC1)c1ccc(-c2ccccc2)cc1 [Compound 14] . Return the value. 7.19

Recorded values, source patent US20220313629A1.
